B1: SETD8 (parent)
chain: FVVEYHGDLIEITDAKKREALYAQ

- Variants of: B1
- procedure_summary: protein stability index of a GFP-peptide fusion (GPS, HEK-293T) (PSI 1-6); higher = more stable;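 note: lentivirally expressed fusions sorted by FACS into six bins by GFP to DsRed ratio, PSI derived from sequencing read proportions per bin multiplied by bin number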
- recorded_conditions: c terminus: a fixed tail appended
attribute_measured: protein stability index
Just the number.

QUERY: So what does the record say about protein stability index for `E11Q` ?
RESULT: 2.51

QUERY: So what does the record say about protein stability index for `A23E` ?
RESULT: 1.84

QUERY: So what does the record say about protein stability index for `T13V` ?
RESULT: 3.05

QUERY: So what does the record say about protein stability index for `I10Q` ?
RESULT: 2.5

QUERY: So what does the record say about protein stability index for `L9T` ?
RESULT: 2.06

QUERY: So what does the record say about protein stability index for `Y5R` ?
RESULT: 2.67

QUERY: So what does the record say about protein stability index for `T13I` ?
RESULT: 2.24

QUERY: So what does the record say about protein stability index for `E19K` ?
RESULT: 1.47

QUERY: So what does the record say about protein stability index for `I10V` ?
RESULT: 1.56

QUERY: So what does the record say about protein stability index for `I10K` ?
RESULT: 2.28

QUERY: So what does the record say about protein stability index for `E4W` ?
RESULT: 1.44

QUERY: So what does the record say about protein stability index for `F1P` ?
RESULT: 4.46

QUERY: So what does the record say about protein stability index for `I12W` ?
RESULT: 2.45

QUERY: So what does the record say about protein stability index for `V3N` ?
RESULT: 3.01

QUERY: So what does the record say about protein stability index for `A23V` ?
RESULT: 1.65

QUERY: So what does the record say about protein stability index for `K16R` ?
RESULT: 2.07

QUERY: So what does the record say about protein stability index for `K16C` ?
RESULT: 1

QUERY: So what does the record say about protein stability index for `F1C` ?
RESULT: 3.3

QUERY: So what does the record say about protein stability index for `K17V` ?
RESULT: 2.07

QUERY: So what does the record say about protein stability index for `A15K` ?
RESULT: 2.33

QUERY: So what does the record say about protein stability index for `L9G` ?
RESULT: 1.59

QUERY: So what does the record say about protein stability index for `Y5E` ?
RESULT: 3.86

QUERY: So what does the record say about protein stability index for `L9C` ?
RESULT: 2.25

QUERY: So what does the record say about protein stability index for `E4Q` ?
RESULT: 2.69

QUERY: So what does the record say about protein stability index for `I10T` ?
RESULT: 2.01

QUERY: So what does the record say about protein stability index for `I10P` ?
RESULT: 2.25

QUERY: So what does the record say about protein stability index for `I12P` ?
RESULT: 2.36

QUERY: So what does the record say about protein stability index for `L21P` ?
RESULT: 3.09

QUERY: So what does the record say about protein stability index for `F1M` ?
RESULT: 2.71

QUERY: So what does the record say about protein stability index for `Q24V` ?
RESULT: 1.85

QUERY: So what does the record say about protein stability index for `F1S` ?
RESULT: 4.43

QUERY: So what does the record say about protein stability index for `T13H` ?
RESULT: 2.02

QUERY: So what does the record say about protein stability index for `A20I` ?
RESULT: 2.09

QUERY: So what does the record say about protein stability index for `I12L` ?
RESULT: 2.55

QUERY: So what does the record say about protein stability index for `T13D` ?
RESULT: 1.97

QUERY: So what does the record say about protein stability index for `K17I` ?
RESULT: 1.75

QUERY: So what does the record say about protein stability index for `I10N` ?
RESULT: 1.88

QUERY: So what does the record say about protein stability index for `E19V` ?
RESULT: 1.51

QUERY: So what does the record say about protein stability index for `L9W` ?
RESULT: 1.47

QUERY: So what does the record say about protein stability index for `V2R` ?
RESULT: 3.02

QUERY: So what does the record say about protein stability index for `L21H` ?
RESULT: 2.79

QUERY: So what does the record say about protein stability index for `A23G` ?
RESULT: 1.13

QUERY: So what does the record say about protein stability index for `A20L` ?
RESULT: 1.39

QUERY: So what does the record say about protein stability index for `A15W` ?
RESULT: 2.37

QUERY: So what does the record say about protein stability index for `I12N` ?
RESULT: 2.54

QUERY: So what does the record say about protein stability index for `A15N` ?
RESULT: 1.43

QUERY: So what does the record say about protein stability index for `I10F` ?
RESULT: 2.1

QUERY: So what does the record say about protein stability index for `I12D` ?
RESULT: 2.22

QUERY: So what does the record say about protein stability index for `F1A` ?
RESULT: 4.23

QUERY: So what does the record say about protein stability index for `V2C` ?
RESULT: 3.25

QUERY: So what does the record say about protein stability index for `I12F` ?
RESULT: 2.21

QUERY: So what does the record say about protein stability index for `K16N` ?
RESULT: 1.68

QUERY: So what does the record say about protein stability index for `A23R` ?
RESULT: 2.3

QUERY: So what does the record say about protein stability index for `Y22F` ?
RESULT: 1.79

QUERY: So what does the record say about protein stability index for `Y22R` ?
RESULT: 1.99

QUERY: So what does the record say about protein stability index for `E19C` ?
RESULT: 2.87

QUERY: So what does the record say about protein stability index for `Y5D` ?
RESULT: 3.2

QUERY: So what does the record say about protein stability index for `E19Q` ?
RESULT: 1.7

QUERY: So what does the record say about protein stability index for `D14L` ?
RESULT: 1.16

QUERY: So what does the record say about protein stability index for `E19A` ?
RESULT: 2.41

QUERY: So what does the record say about protein stability index for `A23N` ?
RESULT: 1.69

QUERY: So what does the record say about protein stability index for `Y22E` ?
RESULT: 2.6

QUERY: So what does the record say about protein stability index for `L21S` ?
RESULT: 2.36

QUERY: So what does the record say about protein stability index for `E11F` ?
RESULT: 2.92

QUERY: So what does the record say about protein stability index for `E11D` ?
RESULT: 2.36

QUERY: So what does the record say about protein stability index for `A15V` ?
RESULT: 2.3

QUERY: So what does the record say about protein stability index for `R18N` ?
RESULT: 2.31

QUERY: So what does the record say about protein stability index for `F1V` ?
RESULT: 2.5

QUERY: So what does the record say about protein stability index for `R18C` ?
RESULT: 2.32

QUERY: So what does the record say about protein stability index for `L21R` ?
RESULT: 1.39

QUERY: So what does the record say about protein stability index for `V2F` ?
RESULT: 2.19

QUERY: So what does the record say about protein stability index for `H6T` ?
RESULT: 1.76

QUERY: So what does the record say about protein stability index for `R18I` ?
RESULT: 3.16

QUERY: So what does the record say about protein stability index for `I12R` ?
RESULT: 2.48

QUERY: So what does the record say about protein stability index for `E11M` ?
RESULT: 2.49

QUERY: So what does the record say about protein stability index for `F1H` ?
RESULT: 4.35

QUERY: So what does the record say about protein stability index for `V2M` ?
RESULT: 2.49

QUERY: So what does the record say about protein stability index for `V3Q` ?
RESULT: 2.32

QUERY: So what does the record say about protein stability index for `E4G` ?
RESULT: 3.07

QUERY: So what does the record say about protein stability index for `T13K` ?
RESULT: 2.79

QUERY: So what does the record say about protein stability index for `A20K` ?
RESULT: 1.85

QUERY: So what does the record say about protein stability index for `L21G` ?
RESULT: 2.05

QUERY: So what does the record say about protein stability index for `H6M` ?
RESULT: 2.04

QUERY: So what does the record say about protein stability index for `D14N` ?
RESULT: 1.65

QUERY: So what does the record say about protein stability index for `E11P` ?
RESULT: 2.62

QUERY: So what does the record say about protein stability index for `L9E` ?
RESULT: 2.42

QUERY: So what does the record say about protein stability index for `T13S` ?
RESULT: 2.46

QUERY: So what does the record say about protein stability index for `V3P` ?
RESULT: 2.03

QUERY: So what does the record say about protein stability index for `I10C` ?
RESULT: 1.99

QUERY: So what does the record say about protein stability index for `V3C` ?
RESULT: 2.24

QUERY: So what does the record say about protein stability index for `G7I` ?
RESULT: 3.15
